B1: Pistol ribozyme (parent)
chain: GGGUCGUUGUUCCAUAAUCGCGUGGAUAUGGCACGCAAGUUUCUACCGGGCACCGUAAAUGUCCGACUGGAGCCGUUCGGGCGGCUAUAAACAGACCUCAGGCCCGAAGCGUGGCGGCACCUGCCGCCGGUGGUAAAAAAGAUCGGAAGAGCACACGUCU

Variants of: B1
Assay: aptazyme ON/OFF ratio, guanine; higher = stronger switching; co-transcriptional cleavage with and without guanine

VARIANT_NOTATION: U7A U8C G9A U11G C12A
aptazyme ON/OFF ratio: 1.11

VARIANT_NOTATION: U7A U8G G9A U10A U11G C12A C13G
aptazyme ON/OFF ratio: 1.37

VARIANT_NOTATION: U7C U8G G9C U10A U11A C12G C13G
aptazyme ON/OFF ratio: 1.18

VARIANT_NOTATION: U8C U10G U11C C12A C13G
aptazyme ON/OFF ratio: 1.11

VARIANT_NOTATION: U8A G9C U10G U11A C12G C13G
aptazyme ON/OFF ratio: 1.52

VARIANT_NOTATION: U7C U8A G9C U10C U11C C12G C13A
aptazyme ON/OFF ratio: 1.04

VARIANT_NOTATION: U7C G9U U11C C12G C13G
aptazyme ON/OFF ratio: 1.06

VARIANT_NOTATION: U7C U8G G9C U10A C12G
aptazyme ON/OFF ratio: 1.14

VARIANT_NOTATION: U8C G9U U10G U11A C12U
aptazyme ON/OFF ratio: 1.04

VARIANT_NOTATION: U7A U8C U10C C12U
aptazyme ON/OFF ratio: 3.63

VARIANT_NOTATION: U7C U8A G9U U10A C12U C13G
aptazyme ON/OFF ratio: 1.16

VARIANT_NOTATION: U7G U8G G9C U10A U11C
aptazyme ON/OFF ratio: 1.04

VARIANT_NOTATION: G9U U10G C12G C13G
aptazyme ON/OFF ratio: 1.41

VARIANT_NOTATION: U8G G9A U10G U11A C12A
aptazyme ON/OFF ratio: 1.34

VARIANT_NOTATION: U7C U8C U10A U11A C12G C13G
aptazyme ON/OFF ratio: 1.21

VARIANT_NOTATION: U8C G9A U10C U11A C12U C13A
aptazyme ON/OFF ratio: 1.37

VARIANT_NOTATION: U7C U8A G9C U11G C13A
aptazyme ON/OFF ratio: 1.07

VARIANT_NOTATION: U7A U8A G9U U10C C12G
aptazyme ON/OFF ratio: 1.43

VARIANT_NOTATION: U7G U8C G9A U10A U11G C12U
aptazyme ON/OFF ratio: 1.26

VARIANT_NOTATION: U8C U10G U11A C12A C13U
aptazyme ON/OFF ratio: 1.2

VARIANT_NOTATION: U7G U8G G9C U10C
aptazyme ON/OFF ratio: 2.35

VARIANT_NOTATION: U7C U8A G9U U10A U11G C12A C13U
aptazyme ON/OFF ratio: 1.14
